tested on: Hs-578T; experiment: NCI tumour cell line growth inhibition, 48 h
Calls of active or inactive are those of the source. No stated cut-off is given here; in the data, active = GI50 up to about 1.1 µM and inactive = higher.
# valid calls are TRUE for active, FALSE for inactive; nothing else

Lookup: GET /call?item= O=C(CC1C=Cc2ccccc2N1C(=O)c1ccccc1)c1ccccc1 (stereo unspecified) returns the recorded outcome of this test.
Found: FALSE

Lookup: GET /call?item= C(/Cc1ccc2c(c1)OCO2)=N\N=C1NCCCN1 returns the recorded outcome of this test.
Found: FALSE

Lookup: GET /call?item= O=C1/C(=C/c2ccc(Cl)cc2)N=C(c2ccccc2)N1c1nc2c(Cl)cc(Cl)cc2s1 returns the recorded outcome of this test.
Found: FALSE

Lookup: GET /call?item= CC1=NN(c2ccccc2)C(=O)/C1=C1\SC(c2ccccc2)(c2ccccc2)c2ccccc21 returns the recorded outcome of this test.
Found: FALSE

Lookup: GET /call?item= Nc1ncnc2c1ccn2CC=C(CO)CO returns the recorded outcome of this test.
Found: FALSE

Lookup: GET /call?item= CC(Cl)(CCC(Cl)C(C)(C)Cl)C(=O)CBr (stereo unspecified) returns the recorded outcome of this test.
Found: FALSE

Lookup: GET /call?item= O=C1OC(c2ccccc2)N(C(=O)c2ccccc2)C1Cc1ccc(OCc2ccccc2)cc1 (stereo unspecified) returns the recorded outcome of this test.
Found: FALSE

Lookup: GET /call?item= CN(C)c1ccc(/C=C/c2ccnc3ccccc23)cc1N returns the recorded outcome of this test.
Found: FALSE

Lookup: GET /call?item= CS(=O)(=O)N1CC(CI)c2ccc(O)cc21 (stereo unspecified) returns the recorded outcome of this test.
Found: FALSE

Lookup: GET /call?item= COc1cc2cc(C(=O)N3CC(CCl)c4c3cc(N)c3ccccc43)[nH]c2cc1OCCN(C)C (stereo unspecified) returns the recorded outcome of this test.
Found: TRUE

Lookup: GET /call?item= N#CSc1ccc(S(N)(=O)=O)cc1 returns the recorded outcome of this test.
Found: FALSE

====

system: HCT-116; experiment: NCI tumour cell line growth inhibition, 48 h
Active and inactive are the calls of the source. Cut-off read from the data, not from the text of the source: active = GI50 up to about 1.1 µM and inactive = higher.
For each entry below, report its GI50 value.

Lookup: Record request: GI50 value, item CC(=O)CCCCC(=O)Nc1ccc(CC(NC(=O)OC(C)(C)C)C(=O)NCC(=O)OCc2ccccc2)cc1 (centres undefined)
Found: 19.6 µM (inactive)

Lookup: Record request: GI50 value, item Cc1cc(C)c2c(n1)S(=O)(=O)N(CCCN1CCN(c3cccc(Cl)c3)CC1)C(C(=O)c1ccc(Br)cc1)=C2O
Found: 19.1 µM (inactive)

Lookup: Record request: GI50 value, item COC(=O)/C=C1/OC(c2ccccc2)=C(C)C1=O
Found: 4.18 µM (inactive)

Lookup: Record request: GI50 value, item O=c1oc2ccc3ccccc3c2cc1-c1nc2ccc([N+](=O)[O-])cc2o1
Found: 48.6 µM (inactive)

Lookup: Record request: GI50 value, item c1ccc(-c2nc3sccn3n2)cc1
Found: > 100 µM (inactive)

Lookup: Record request: GI50 value, item Cc1ccc(C)c(NC(=O)C(=O)C(C(=O)c2ccc3ccccc3c2)C2OC(=O)c3ccccc32)c1 (centres undefined)
Found: 12.3 µM (inactive)

Lookup: Record request: GI50 value, item C#CC(O)/C=C/C(O)CCCC(O)CC#CC(O)C#CCCCCC(O)/C=C/CCCCCC(=O)CCCCCCCCCCCCCC(O)C(O)C#CC(=O)O (centres undefined)
Found: > 25 µM (inactive)

Lookup: Record request: GI50 value, item C=C(C)C(CC=C(C)C)Cc1c(O)cc(OC)c2c1OC(c1ccc(O)cc1O)C(O)C2=O (centres undefined)
Found: 17.3 µM (inactive)

Lookup: Record request: GI50 value, item CC(=O)O/N=C/c1ncccc1CO
Found: > 100 µM (inactive)

====

For each entry below, report its GI50 value.
test system: SF-539; assay: NCI tumour cell line growth inhibition, 48 h
Activity calls are given as the source filed them. Cut-off read from the data, not from the text of the source: active = GI50 up to about 1.1 µM and inactive = higher.

Lookup: Record request: GI50 value, item CCCCCCCCCCCCCCCC(=O)OCC1OC(n2cc(F)c(=O)[nH]c2=O)C(N)C(O)C1O (stereo not drawn)
Found: 19.4 µM (inactive)

Lookup: Record request: GI50 value, item CC(C)c1c2[nH]c3ccccc3c2c(C(C)C)c2[nH]c3ccccc3c12
Found: > 100 µM (inactive)

Lookup: Record request: GI50 value, item CC(C)(C)OC(=O)NC(Cc1ccc(OCc2ccccc2)cn1)C(=O)N1CCCC1 (stereo not drawn)
Found: 23.2 µM (inactive)

Lookup: Record request: GI50 value, item N#CSc1ccc(S(N)(=O)=O)cc1
Found: 25.1 µM (inactive)

Lookup: Record request: GI50 value, item CCCCCCCCC(=O)N(C)C1C2CN3CCC(O2)C13 (stereo not drawn)
Found: > 100 µM (inactive)

Lookup: Record request: GI50 value, item C/C(=N\Nc1ccccc1)c1sc(-c2nc(C)c(/C(C)=N/Nc3ccccc3)s2)nc1C
Found: 16.1 µM (inactive)

Lookup: Record request: GI50 value, item OC(c1cccnc1Cl)c1nc2ccccc2c2ccnc(Cl)c12 (stereo not drawn)
Found: 3.02 µM (inactive)

Lookup: Record request: GI50 value, item COC(=O)c1c2c(cc3c1CC1(C3)Cc3cc4c(c(C(=O)OC)c3C1)CCCC4)CCCC2
Found: > 100 µM (inactive)

Lookup: Record request: GI50 value, item C#CCNC(=O)N(CC#C)N=O
Found: > 100 µM (inactive)

Lookup: Record request: GI50 value, item CC[C@@]1(O)C(=O)OCc2c1cc1n(c2=O)Cc2cc3c(N)cccc3nc2-1
Found: < 0.01 µM (active)

Lookup: Record request: GI50 value, item C[C@@H](NC(=O)Cn1c(Cl)nc2ccccc21)c1ccccc1
Found: > 100 µM (inactive)

Lookup: Record request: GI50 value, item CC(=O)OCCCOCn1c(Cc2ccccc2)c(C)c(=O)[nH]c1=O
Found: > 100 µM (inactive)

Lookup: Record request: GI50 value, item CN1CC2=C(N=C(S)NC2c2ccccc2)/C(=C/c2ccccc2)C1 (stereo not drawn)
Found: 83.9 µM (inactive)

Lookup: Record request: GI50 value, item O=c1oc2ccc3ccccc3c2cc1-c1nc2ccc([N+](=O)[O-])cc2o1
Found: 10.4 µM (inactive)

Lookup: Record request: GI50 value, item CC(=O)Nc1ccc2nc(-c3cccc(Cl)c3)cc(O)c2c1
Found: 4.71 µM (inactive)

Lookup: Record request: GI50 value, item NC(Cc1c2ccccc2cc2ccccc12)C(=O)O (stereo not drawn)
Found: > 100 µM (inactive)

Lookup: Record request: GI50 value, item c1cc2c(cc1NC1=NCCO1)OCO2
Found: > 100 µM (inactive)

Lookup: Record request: GI50 value, item NC(=O)c1nnc2cc(F)ccc2c1N
Found: > 100 µM (inactive)

Lookup: Record request: GI50 value, item CCOC(=O)c1cc2cc([N+](=O)[O-])ccc2oc1=O
Found: > 100 µM (inactive)

Lookup: Record request: GI50 value, item CCOC(=O)c1ccc(Nc2nc3cc(C(F)(F)F)ccc3nc2-c2ccccc2)cc1
Found: 65.5 µM (inactive)

Lookup: Record request: GI50 value, item Nc1ccc2c(=S)c3ccccc3[nH]c2c1
Found: 33.2 µM (inactive)

Lookup: Record request: GI50 value, item Cc1cc(O)c(C(C)C)cc1SC#N
Found: 15.6 µM (inactive)

Lookup: Record request: GI50 value, item C=C1C(=O)OC2CC(=C)C3CC=C(C)C3CC12 (stereo not drawn)
Found: 38.1 µM (inactive)

====

tested on: HCT-116; assay: NCI tumour cell line growth inhibition, 48 h
Activity calls are given as the source filed them. Rule as the data show it: active = GI50 up to about 1.1 µM and inactive = higher.
# valid calls are Y = active, N = inactive; nothing else

Lookup: GET /call?item= COC(=O)C1C(O)C(C)C(O)OC1C(C)C(O)C(C)/C=C\C=C(/C)C(=O)Nc1c(C)c(OC(C)=O)c2c(c1O)C(=O)C(C)=C1OCOC(/C(C)=C/C(C)=O)=C12 (centres undefined) returns the recorded outcome of this test.
Found: N

Lookup: GET /call?item= C=C1CC(O)C2C(=C)C(=O)OC2C2C(C)C(=O)CC12 (centres undefined) returns the recorded outcome of this test.
Found: N

Lookup: GET /call?item= COc1cc(C(C)O)c[n+](CCC2CNc3ccccc32)c1 (centres undefined) returns the recorded outcome of this test.
Found: N

Lookup: GET /call?item= CCOC(=O)c1nc2ccc(C(F)(F)F)cc2nc1Oc1ccc(OC)cc1 returns the recorded outcome of this test.
Found: N

Lookup: GET /call?item= O=Cc1c(Cn2ccnc2)c2cc([N+](=O)[O-])ccc2n1Cc1ccccc1 returns the recorded outcome of this test.
Found: N

Lookup: GET /call?item= O=C(C[n+]1ccccc1)N/N=C(/CCC(=O)N(Cc1ccccc1)Cc1ccccc1)CC(=O)c1ccccc1 returns the recorded outcome of this test.
Found: N

Lookup: GET /call?item= Cc1ccc2c(c1)C(=O)C1(C2)Cc2c(C)cccc2C1=O (centres undefined) returns the recorded outcome of this test.
Found: N

Lookup: GET /call?item= O=C1CC2OCC=C3CN4CCC56c7ccccc7N1C5C2C3CC46O (centres undefined) returns the recorded outcome of this test.
Found: N

Lookup: GET /call?item= C=CC[C@@]1(C)CCCCCCCCC[C@@](C)(CC=C)C1=O returns the recorded outcome of this test.
Found: N

Lookup: GET /call?item= CC1=NNC(=O)C1C(CC(=O)c1c[nH]c2ccccc12)C(=O)O (centres undefined) returns the recorded outcome of this test.
Found: N

Lookup: GET /call?item= O=C1Nc2ccc(Br)cc2/C1=N/c1ccc2c(c1)OCO2 returns the recorded outcome of this test.
Found: N

Lookup: GET /call?item= N=C(c1ccccc1)N1CCCCC1 returns the recorded outcome of this test.
Found: N

Lookup: GET /call?item= CCOc1ccccc1/N=N/c1ccc2oc(=O)c(C(=O)Nc3cccc(C)c3)cc2c1 returns the recorded outcome of this test.
Found: N

Lookup: GET /call?item= N#CSc1ccc(S(N)(=O)=O)cc1 returns the recorded outcome of this test.
Found: N

Lookup: GET /call?item= COc1ccc(C(=O)C(C(=O)CCC(=O)Nc2ccc(C)c(C)c2)c2ccc(OC)cc2)cc1 (centres undefined) returns the recorded outcome of this test.
Found: N

Lookup: GET /call?item= COC(=O)c1c/c(=N\NC(=O)CC(=O)Nc2ccccc2Cl)c2ccccc2o1 returns the recorded outcome of this test.
Found: N

Lookup: GET /call?item= O=C(NC(=S)Nc1ccc([N+](=O)[O-])cc1)c1ccc2c(c1)Sc1ccccc1O2 returns the recorded outcome of this test.
Found: N

Lookup: GET /call?item= COc1ccc2c(c1)-c1c(c3cc(OC)ccc3n1CCN1CCOCC1)CC2 returns the recorded outcome of this test.
Found: N

Lookup: GET /call?item= Cc1cccc(NC(=O)CC2C(=O)Nc3ccccc3S2(=O)=O)c1C (centres undefined) returns the recorded outcome of this test.
Found: N

Lookup: GET /call?item= COC(=O)CCC1=CCC2(SC)C(=O)Nc3cccc1c32 (centres undefined) returns the recorded outcome of this test.
Found: N

Lookup: GET /call?item= O=c1cc(NNc2cccc(F)c2)[nH]c(=S)[nH]1 returns the recorded outcome of this test.
Found: N

Lookup: GET /call?item= Cc1ccc(S(=O)(=O)OCC23CCC(C2)C2CC23)cc1 (centres undefined) returns the recorded outcome of this test.
Found: N

Lookup: GET /call?item= OCC(Cn1cncn1)(c1ccc(F)cc1F)n1cncn1 (centres undefined) returns the recorded outcome of this test.
Found: N

Lookup: GET /call?item= COC1=CC(=O)N(C(=O)C2CSC(C(CO)NC(=O)c3csc(/C=N/O)n3)=N2)C1 (centres undefined) returns the recorded outcome of this test.
Found: N

Lookup: GET /call?item= COC(=O)[C@H](CCSC)NC(=O)c1ccc(CNC(=O)/C(C)=C/c2ccccc2)cc1 returns the recorded outcome of this test.
Found: N

Lookup: GET /call?item= C[n+]1c2ccccc2n2c3ccccc3c(NCCCn3ccnc3)c(C#N)c21 returns the recorded outcome of this test.
Found: Y

Lookup: GET /call?item= CCOC(=O)c1c(N)sc2c1C(C(=O)OCC)CCCC2 (centres undefined) returns the recorded outcome of this test.
Found: N

Lookup: GET /call?item= CC(=O)OC1COC(n2c(-c3ccc(Cl)cc3)cc(-c3ccccc3)c(C#N)c2=S)C(OC(C)=O)C1OC(C)=O (centres undefined) returns the recorded outcome of this test.
Found: N

Lookup: GET /call?item= O=C(NNC(=O)/C(=C/c1cccc([N+](=O)[O-])c1)NC(=O)c1ccccc1)Nc1ccc(Cl)cc1 returns the recorded outcome of this test.
Found: N

Lookup: GET /call?item= COc1ccc(NC(C)c2ccncc2)cc1 (centres undefined) returns the recorded outcome of this test.
Found: N

Lookup: GET /call?item= COC(=O)CC[C@]12C[C@]13CC[C@]1(C)C4C(C)C[C@]5(CC(C)C(=O)O5)OC4CC1(C)C3CCC2C(C)(C)O (some centres undefined) returns the recorded outcome of this test.
Found: N

Lookup: GET /call?item= COC(=O)C(Cc1ccc2c(c1)CCCC2)Cc1cc2c(cc1C(O)OC)CCC2 (centres undefined) returns the recorded outcome of this test.
Found: N

Lookup: GET /call?item= O=C(CC1C=Cc2ccccc2N1C(=O)c1ccccc1)c1ccccc1 (centres undefined) returns the recorded outcome of this test.
Found: N

Lookup: GET /call?item= Cc1cn(C(C)OCCN2C(=O)c3ccccc3C2=O)c(=O)[nH]c1=O (centres undefined) returns the recorded outcome of this test.
Found: N

Every entry's value here was drawn from ChEMBL document CHEMBL1201862.
